# Experimental Target: T1, soluble mouse BLyS (mouse, UniProt Q9WU72 127-309)
# T1 construct: europium-labelled in DELFIA; also called mBLyS; mouse BAFF (BLyS)
# Assay Method Text: Biacore, antibody captured on chip, BLyS injected, 1:1 model, 25 C
Measured Parameter: kon (M⁻¹ s⁻¹)
Write the number in M⁻¹ s⁻¹ without appending the unit.

input: Entry under review: 6C10 IgG expressed in HEK293 cells (antibody, V domains shown, IgG from HEK293-FreeStyle cells; also called 6C10 (293)) VH: EVQLVQSGAEVKKPGASVKVSCKASGYTFTSYGISWVRQAPGQGLEWMGWISAYNGNTNYAQKLQGRVTMTTDTSTSTAYMELRSLRSDDTAVYYCARTYYDILTGYYYYYGMDVWGQGTTVTVSS VL: EIVLTQSPGTLSLSPGERAMLSCRASQSVGNYLAWYQQKPGQAPRLLIYDASNRATGIPARFSGSGSGTDFTLTINSLEPEDFAVYYCQQRSNWPLTFGGGTKVEIKR . Reported kon?
output: 200000
